The origin of these recorded values is patent US20210024545A1.

Biological target: human TASK-1 (Homo sapiens, UniProt O14649)
Sequence (O14649 whole entry): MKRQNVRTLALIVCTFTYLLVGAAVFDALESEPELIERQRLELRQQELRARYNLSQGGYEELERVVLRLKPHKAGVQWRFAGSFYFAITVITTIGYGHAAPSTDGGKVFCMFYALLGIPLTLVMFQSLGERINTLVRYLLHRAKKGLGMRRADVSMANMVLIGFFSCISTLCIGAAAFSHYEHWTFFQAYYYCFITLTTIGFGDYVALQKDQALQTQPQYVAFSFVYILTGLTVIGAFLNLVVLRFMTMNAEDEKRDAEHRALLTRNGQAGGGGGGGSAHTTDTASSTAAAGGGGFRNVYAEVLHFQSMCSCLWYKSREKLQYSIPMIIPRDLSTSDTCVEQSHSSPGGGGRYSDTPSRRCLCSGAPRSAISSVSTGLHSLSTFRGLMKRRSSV
Assay: Washout rate after binding to the human TASK-1 channel, two-electrode voltage clamp in Xenopus laevis oocytes (B-4)
Format: cell-based
Design: expressed in transfected cells; host or cells: Xenopus laevis oocytes injected with cRNA transcribed from the pSGEM vector
Settings: TASK-1 inhibited beforehand by about 40% at the concentration of Table 3 (30-80 nM); restoration of current recorded over at least one hour
Text: The washout rate is defined as the washout of a compound according to the invention from the TASK-1 channel in % h^−1, measured by means of electrophysiological analysis on TASK-1-expressing Xenopus laevis oocytes via the two-electrode voltage clamp technique according to the description in section B-4. B-4. In Vitro Electrophysiological Analysis of the Washout Rate of Compounds After Binding to the Human TASK-1 Channel via Two-Electrode Voltage Clamp Technique in Xenopus laevis Oocytes […]
endpointName: Washout rate (% h^−1)
Enter your answer as a number in % h^−1; do not include the unit.

# example entries with known answers
molecule	Washout rate (% h^−1)
COc1cccc(C(=O)N2C[C@@H]3CC[C@H]2CN3Cc2c(-c3ccc(Cl)cc3)nc3ccccn23)n1 (single isomer, unassigned; enantiomer 1)	40
COc1cccc(C(=O)N2CC3CCC2CN3Cc2c(-c3ccc(Cl)cn3)nc3ccccn23)n1 (single isomer, unassigned; enantiomer 1)	17
COc1cccc(C(=O)N2C3CCC2CN(Cc2c(-c4ccc(Cl)cn4)nc4ccccn24)C3)n1	55

For the next question, use this molecule.
q: # get_value(readout='Washout rate', item= `COc1cccc(C(=O)N2C3COCC2CN(Cc2c(-c4ccc(Cl)cc4)nc4ccccn24)C3)n1` )
a: 17
